Biological target: HLA-A*68:02
Experiment: IEDB peptide-MHC binding, purified MHC/direct/fluorescence; filed as Kd, often an IC50 or EC50 that approximates it; bounds were set here for any values at or beyond the usual limits of such assays
Settings: source organism: Influenza A virus (A/chicken/Hubei/wk/1997(H5N1))

[
  {
    "Residue String": "MKWMMAMKY",
    "Study System": "HLA-A*68:02",
    "Kd": "≥ 20 µM"
  }
]

###

Target: HLA-B*58:01
Assay: IEDB peptide-MHC binding, purified MHC/direct/fluorescence; filed as Kd, often an IC50 or EC50 that approximates it; bounds were set here for any values at or beyond the usual limits of such assays
Conditions: source organism: Mycobacterium tuberculosis
# key: entry, value: Kd
Outcome Measure: Kd

[
  {
    "Residue String": "RPAPATGAL",
    "Reported Result": "≥ 20 µM"
  },
  {
    "Residue String": "YPACEAIGL",
    "Reported Result": "≥ 20 µM"
  },
  {
    "Residue String": "KVMVICYAY",
    "Reported Result": "0.705 µM"
  }
]
